Each entry below lists one item and its recorded myelination value.
# Test system: E18 rat cortical neuron-glia co-culture
# assay-remarks: myelination (MBP fiber length per Olig2+ nucleus), % of 1 µM DAPT response (DMSO = 0) (% of DAPT); higher = more myelination, active = 50 or more
# particulars: 1 µM; treatment time: 8 days (DIV5-DIV13)

>  <compound>
C[C@H](CS)C(=O)N1CCC[C@H]1C(=O)O

>  <myelination>
-9.04

$$$$
>  <compound>
Cc1ccc(O)c([C@H](CCN(C(C)C)C(C)C)c2ccccc2)c1

>  <myelination>
-15.9

$$$$
>  <compound>
OC(CCN1CCCCC1)(c1ccccc1)C1CCCCC1 (stereo not drawn)

>  <myelination>
-12.2

$$$$

----------
# Test system: E18 rat cortical neuron-glia co-culture
# assay-remarks: fiber score / MBP score (myelination specific beyond OL differentiation) (ratio); higher = more myelination-specific MBP alignment
# particulars: 1 µM; treatment time: 8 days (DIV5-DIV13)
measured-parameter: fiber score / MBP score

>  <compound>
Cc1ncc([N+](=O)[O-])n1CC(C)O (stereo not drawn) [Secnidazole]

>  <assay-value>
0.462

$$$$
>  <compound>
C[C@]12CCC(=O)C=C1CC[C@@H]1[C@@H]2CC[C@@]2(C)[C@H]1CC[C@]2(O)C(=O)CO [Cortodoxone]

>  <assay-value>
0.514

$$$$
>  <compound>
CC(C)c1ccc2oc3nc(N)c(C(=O)O)cc3c(=O)c2c1 [Amlexanox]

>  <assay-value>
0.826

$$$$

----------
Each entry below lists one item and its recorded fiber score / MBP score value.
# Test system: E18 rat cortical neuron-glia co-culture
# assay-remarks: fiber score / MBP score (myelination specific beyond OL differentiation) (ratio); higher = more myelination-specific MBP alignment
# particulars: 5 µM; treatment time: 8 days (DIV5-DIV13)
Structures can show the parent of a compound that is named as a salt.

>  <compound>
CC1(C)S[C@@H]2[C@H](NC(=O)Cc3ccccc3)C(=O)N2[C@H]1C(=O)O

>  <fiber score / MBP score>
1.19

$$$$
>  <compound>
Nc1nc2ccc(OC(F)(F)F)cc2s1

>  <fiber score / MBP score>
0.478

$$$$
>  <compound>
Nc1c2c(nc3ccccc13)CCCC2

>  <fiber score / MBP score>
0.566

$$$$
>  <compound>
Nc1ncnc2c1ncn2[C@@H]1O[C@H](CO)[C@@H](O)[C@H]1O

>  <fiber score / MBP score>
0.875

$$$$
>  <compound>
CCCCN1CCCC1CNC(=O)c1cc(C#N)c2ccccc2c1OC (stereo not drawn) [Nafadotride]

>  <fiber score / MBP score>
0.414

$$$$
>  <compound>
C[C@]12CC[C@@H]3c4ccc(OS(=O)(=O)O)cc4CC[C@H]3[C@@H]1CCC2=O [Estrone sulfate]

>  <fiber score / MBP score>
1.16

$$$$
>  <compound>
CNCCCCOc1ccccc1Cc1ccccc1

>  <fiber score / MBP score>
0.543

$$$$
>  <compound>
NC(=O)c1ncn([C@@H]2O[C@H](CO)[C@@H](O)[C@H]2O)n1

>  <fiber score / MBP score>
1.03

$$$$
>  <compound>
NC(=O)c1cnccn1 [Pyrazinamide]

>  <fiber score / MBP score>
0.862

$$$$
>  <compound>
CO[C@H]1/C=C/O[C@@]2(C)Oc3c(C)c(O)c4c(c3C2=O)C2=NC3(CCN(CC(C)C)CC3)NC2=C(NC(=O)/C(C)=C\C=C\[C@H](C)[C@H](O)[C@@H](C)[C@@H](O)[C@@H](C)[C@H](OC(C)=O)[C@@H]1C)C4=O

>  <fiber score / MBP score>
0.734

$$$$
>  <compound>
Cc1ccc(N(CC2=NCCN2)c2cccc(O)c2)cc1

>  <fiber score / MBP score>
0.56

$$$$
>  <compound>
COc1cc(/C=C/c2ccc(O)cc2)cc(OC)c1

>  <fiber score / MBP score>
0.668

$$$$
>  <compound>
CN(C)CCc1c[nH]c2ccc(C[C@H]3COC(=O)N3)cc12

>  <fiber score / MBP score>
0.785

$$$$
>  <compound>
CC(C)(C)NCC(O)c1cc(O)cc(O)c1 (stereo not drawn)

>  <fiber score / MBP score>
0.251

$$$$
>  <compound>
Nc1nc(N)nc(-c2cc(Cl)ccc2Cl)n1

>  <fiber score / MBP score>
0.877

$$$$
>  <compound>
Clc1cccc(Cl)c1NC1=NCCN1 [Clonidine hydrochloride]

>  <fiber score / MBP score>
0.879

$$$$
>  <compound>
Cc1cn([C@H]2C=C[C@@H](CO)O2)c(=O)[nH]c1=O

>  <fiber score / MBP score>
0.637

$$$$
>  <compound>
NC1CCN(c2cccc(Cl)n2)CC1

>  <fiber score / MBP score>
0.551

$$$$
